B1: Segment polarity protein dishevelled homolog DVL-3, residues 2 to 81; numbered along this chain, Q92997 (parent)
chain: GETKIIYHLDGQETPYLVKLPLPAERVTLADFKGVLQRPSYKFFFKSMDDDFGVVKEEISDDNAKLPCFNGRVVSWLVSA

variants of: B1; assay: abundance fitness (aPCA) (normalised: wild type 0, dead -1); higher = more abundant; growth selection in yeast, the domain comes from the species named; conditions: Homo sapiens
Hi there, I'd appreciate the recorded abundance fitness for every entry that follows.
Numbers only.

GETKIIYHLDGQETPYLVKLPLPAERVTLADWKGVLQRPSYKFFFKSMDDDFGVVKEEISDDNAKLPCFNGRVVSWLVSA [F32W]
-0.61
GETKIIYHLDGQETPYLVKLPAPAERVTLADFKGVLQRPSYKFFFKSMDDDFGVVKEEISDDNAKLPCFNGRVVSWLVSA [L22A]
-0.604
GETKIIYHLDGQETPYLVKLTLPAERVTLADFKGVLQRPSYKFFFKSMDDDFGVVKEEISDDNAKLPCFNGRVVSWLVSA [P21T]
-0.592
GETKIIYHLDGQETPYLVKLPLPAERVTLADFKGVLQRPSYKFFFKSMDDDFGVVKEEMSDDNAKLPCFNGRVVSWLVSA [I59M]
-0.474
GETKIIYHLDGQETPYLVKLPLPMERVTLADFKGVLQRPSYKFFFKSMDDDFGVVKEEISDDNAKLPCFNGRVVSWLVSA [A24M]
-0.546
GETKIIYHLDGQETPYLVKLPLPAERVTLADFKGVLQRPSYKFFFKSMDDDFGVVKEEISLDNAKLPCFNGRVVSWLVSA [D61L]
-0.763
GETKIIYHLDGQETPYLVKLPLPAERVTLADFKGVLQRPSYKFFFKSYDDDFGVVKEEISDDNAKLPCFNGRVVSWLVSA [M48Y]
0.175
GETKIIYHLDGQETPYLVKLPLPAERVTLADFKGVLQRPSYKFFFKSMDDDFGVVKEEISDDNAKLPCFYGRVVSWLVSA [N70Y]
-0.915

Now for the variant whose abundance fitness we want.
Challenge: Please supply the value of reported abundance fitness for the item GETKIIYHLDGQETPYLVKLPLPAERVTLADFKGVLQRPSYKFFFKSMDDDFGVVKEEIKDDNAKLPCFNGRVVSWLVSA [S60K]
Response given: 0.032

Value source: the Human Domainome abundance scans (Beltran et al. 2025)
